Reported values of DC50 for individual entries
- TARGET OF ASSAY: BCL-XL (Homo sapiens)
- Construct: endogenous in cells; host or cells: MOLT-4
- Sequence (Q07817 whole entry): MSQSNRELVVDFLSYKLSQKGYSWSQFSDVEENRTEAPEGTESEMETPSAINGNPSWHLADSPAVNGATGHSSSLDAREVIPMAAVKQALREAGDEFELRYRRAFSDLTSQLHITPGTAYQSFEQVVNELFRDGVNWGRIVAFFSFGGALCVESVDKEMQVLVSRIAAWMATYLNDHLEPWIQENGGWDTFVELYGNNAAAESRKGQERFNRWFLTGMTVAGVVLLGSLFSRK
- ASSAY PROCEDURE: Bcl-xL ELISA degradation in MOLT-4 cells, 6 h
- Type: cell-based
- TEST PARAMETERS: read-out: Bcl-xL ELISA in MOLT-4 degradation 6 h: Mean external-Abs DC50

Example results:
Cc1ncsc1-c1ccc(CNC(=O)[C@@H]2C[C@@H](O)CN2C(=O)[C@@H](NC(=O)C2(F)CC2)C(C)(C)C)c(OCCCCCS(=O)(=O)NC(=O)c2nc(N3CCc4cccc(C(=O)Nc5nc6ccccc6s5)c4C3)ccc2-c2cnn(CC3CCCCC3)c2C)c1 : 10 to 100 nM
Cc1ncsc1-c1ccc([C@H](C)NC(=O)[C@@H]2C[C@@H](O)CN2C(=O)C(c2cc(OC3CCN(CCCCNC(=O)c4nc(N5CCc6cccc(C(=O)Nc7nc8ccccc8s7)c6C5)ccc4-c4cnn(CC5CCCCC5)c4C)CC3)no2)C(C)C)cc1 (stereo partly shown) : > 1000 nM
Cc1ncsc1-c1ccc([C@H](C)NC(=O)[C@@H]2C[C@@H](O)CN2C(=O)[C@@H](NC(=O)C2CCN(c3ccc(S(=O)(=O)NC(=O)c4nc(N5CCc6cccc(C(=O)Nc7nc8ccccc8s7)c6C5)ccc4-c4cnn(CC5CCOCC5)c4C)cc3)CC2)C(C)(C)C)cc1 : 100 to 500 nM

Here is the next item to consider.
The compound listed as "Cc1ncsc1-c1ccc([C@H](C)NC(=O)[C@@H]2C[C@@H](O)CN2C(=O)[C@H](NC(=O)CCCCCS(=O)(=O)NC(=O)c2nc(N3CCc4cccc(C(=O)Nc5nc6ccccc6s5)c4C3)ccc2-c2cnn(CC3CCCCC3)c2C)C(C)(C)CCO)cc1" shows DC50 equal to 100 to 500 nM

Reference for the values: patent US20250197387A1
